The values you see were collected from PubChem BioAssay AID651813.

Target: DNA dC->dU-editing enzyme APOBEC-3G (Homo sapiens) (UniProt Q9HC16)
Sequence (Q9HC16 whole entry, looked up): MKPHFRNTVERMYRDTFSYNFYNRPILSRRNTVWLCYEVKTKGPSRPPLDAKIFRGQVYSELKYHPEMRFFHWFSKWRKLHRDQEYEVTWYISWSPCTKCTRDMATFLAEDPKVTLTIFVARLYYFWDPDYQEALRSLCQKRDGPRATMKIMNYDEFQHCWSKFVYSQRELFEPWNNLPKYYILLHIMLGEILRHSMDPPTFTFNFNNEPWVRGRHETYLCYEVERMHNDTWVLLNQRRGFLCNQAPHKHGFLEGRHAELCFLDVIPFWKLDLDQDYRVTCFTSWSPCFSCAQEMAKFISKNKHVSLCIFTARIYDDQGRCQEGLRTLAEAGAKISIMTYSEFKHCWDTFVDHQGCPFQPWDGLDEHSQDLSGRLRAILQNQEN
Assay: qHTS for inhibitors of Vif-A3G interactions: Cherry picks counterscreen;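 further: potency means the concentration at half of the fitted maximal effect; hits raise yellow fluorescence by blocking Vif-driven A3G-eYFP degradation; nearly all actives have a fitted effect of over 70% in size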
Details: HeLa A3G-eYFP + Vif (tagged APOBEC3G with the HIV-1 protein that degrades it), eYFP fluorescence, 24 h
Out of some 2,100 compounds screened, about 1,100 (52%) were called active. Not shown: some 27% with an inconclusive outcome. So high a share suggests a set chosen from earlier hits. The list shows a part of the results.
observed-property: Potency

// worked examples, Potency included
compound: Cc1c(C(=O)OC2CCCCC2)[nH]c2c1C(=O)CC(c1ccccc1Cl)C2 (configuration not stated)
observed-property: Potency
value-measured: 9.2 µM (active)
//
compound: O=C1CN(C(=O)c2cc(Br)c(Br)s2)c2ccccc2N1
observed-property: Potency
value-measured: 12.5 µM (active)
//
compound: Cc1ccc2nc(SCC(=O)Nc3ccc4sc(C)nc4c3)c(C#N)cc2c1
observed-property: Potency
value-measured: 18.4 µM (active)
//
compound: CN(C)c1ccc(/C=C/c2ccnc3ccc(I)cc23)cc1
observed-property: Potency
value-measured: 5.17 µM (active)
//
compound: O=C1CC(c2ccccc2)Cc2[nH]c(=O)c(-c3nc(-c4cccc(Cl)c4)cs3)cc21 (configuration not stated)
observed-property: Potency
value-measured: 2.59 µM (active)
//
compound: CC(=O)Nc1cccc(-c2ccnc3c2CC(C)(C(=O)NCc2ccccc2)O3)c1 (configuration not stated)
observed-property: Potency
value-measured: 1.4 µM (active)
//
compound: O=C(/C=C/c1ccc(Cl)cc1)c1ccc([N+](=O)[O-])o1
observed-property: Potency
value-measured: 12.5 µM (active)
//
compound: Cc1ccc(C(=O)NCCn2c(N)c(C#N)c3nc4ccccc4nc32)cc1
observed-property: Potency
value-measured: 23.1 µM (active)
//
compound: O=c1[nH]ncc2c3ccccc3n(Cc3cccc(Cl)c3)c12
observed-property: Potency
value-measured: 18.4 µM (active)
//
compound: CC(=O)c1ccc2cccc3c2c1N=CN3C
observed-property: Potency
value-measured: 12.5 µM (active)

Look up Potency for this compound: COc1cc(SC)ccc1C(=O)N1CCN(c2ccccc2OC)CC1
5.59 µM (active)

Next up: CCc1sc(-c2cc3ccc(O)cc3oc2=O)nc1-c1ccc(C)cc1
2.59 µM (active)

Next up: c1ccc2c(CCc3c[nH]c4ccccc34)ccnc2c1
16.4 µM (active)

Next up: O=c1c2ccccc2nc(/C=C/c2ccc([N+](=O)[O-])o2)n1CCCO
10.3 µM (active)

Next up: COc1ccc(C(=S)N2CCN(c3cccc(Cl)c3)CC2)c(OC)c1
3.53 µM (active)

Next up: CC(C)(C)OC(=O)NC(Cc1ccccc1)C(=O)N1CCC(C(=O)NCC(=O)Nc2ccc(F)cc2)CC1 (configuration not stated)
23.1 µM (active)

Next up: Cc1ccc2nccc(/C=C/c3ccc(N(C)C)cc3)c2c1
11.6 µM (active)

Next up: COc1cccc(Nc2ncccc2C(=O)NCc2ccccc2)c1
19.8 µM (active)

Next up: COc1cc2c(cc1OC)C(C)N(C(=O)c1cc(Cl)nc(Cl)c1)CC2 (configuration not stated)
12.5 µM (active)

Next up: N#C/C(=C\c1cccc(O)c1)c1nc2ccccc2o1
7.04 µM (active)

Next up: Cc1ccc(NC(=O)c2ccc(NCc3ccco3)c([N+](=O)[O-])c2)cc1Cl
14.6 µM (active)

Next up: COc1ccccc1-c1nnc2sc(-c3cc4ccccc4o3)nn12
1.98 µM (active)
